Measured % 25A binding, listed per entry.
# TARGET OF ASSAY: T1, human Tissue Factor (hTF), endogenously expressed on human TF-positive cells (human, UniProt P13726 33-295)
# T1 construct: also called CD142
# PROCEDURE DETAILS: flow cytometry competition on A431 cells, 100 nM unlabelled antibody, competitor 20 nM 25A-Alexa488
// note: answer is a bare numeric in %

anti-TF antibody 25G (antibody, human IgG1, kappa, V domains shown, Human IgG1) VH: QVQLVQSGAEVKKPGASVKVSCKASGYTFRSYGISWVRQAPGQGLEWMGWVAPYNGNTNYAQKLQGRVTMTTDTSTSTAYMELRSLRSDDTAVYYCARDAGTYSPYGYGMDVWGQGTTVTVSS VL: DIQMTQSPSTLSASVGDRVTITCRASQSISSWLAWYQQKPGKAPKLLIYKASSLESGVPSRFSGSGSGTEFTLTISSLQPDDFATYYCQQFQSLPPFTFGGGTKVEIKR | 7

*Q* Find the recorded % 25A binding belonging to anti-TF antibody 25A (antibody, human IgG1, V domains shown, Human IgG1) VH: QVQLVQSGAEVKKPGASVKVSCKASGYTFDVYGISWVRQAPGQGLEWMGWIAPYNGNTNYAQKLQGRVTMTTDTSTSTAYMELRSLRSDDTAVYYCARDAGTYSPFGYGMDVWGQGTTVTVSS VL: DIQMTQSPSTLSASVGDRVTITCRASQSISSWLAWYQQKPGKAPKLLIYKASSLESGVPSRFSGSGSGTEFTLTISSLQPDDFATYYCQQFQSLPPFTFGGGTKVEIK and report it.
*A* 3

*Q* And for anti-TF antibody 39A (antibody, human IgG1, V domains shown, Human IgG1) VH: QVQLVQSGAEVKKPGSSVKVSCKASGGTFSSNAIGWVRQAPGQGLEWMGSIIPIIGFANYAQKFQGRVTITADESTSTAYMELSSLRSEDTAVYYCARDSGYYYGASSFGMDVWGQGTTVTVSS VL: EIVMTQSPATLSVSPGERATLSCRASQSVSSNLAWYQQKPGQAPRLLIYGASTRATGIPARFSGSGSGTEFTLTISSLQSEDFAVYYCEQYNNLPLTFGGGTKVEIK ?
*A* 99

*Q* And for anti-TF antibody 54E (antibody, human IgG1, V domains shown, Human IgG1) VH: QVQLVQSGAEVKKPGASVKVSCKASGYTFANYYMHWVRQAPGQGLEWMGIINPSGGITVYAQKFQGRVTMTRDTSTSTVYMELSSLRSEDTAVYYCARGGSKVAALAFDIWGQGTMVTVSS VL: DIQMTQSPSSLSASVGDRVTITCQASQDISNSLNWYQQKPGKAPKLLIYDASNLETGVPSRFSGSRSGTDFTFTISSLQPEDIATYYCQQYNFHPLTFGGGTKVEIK ?
*A* 99
